Test system: Escherichia coli TOP10
Test: shrunken log2 fold change of peptide-encoding DNA abundance (4.5 h post-induction vs induction); higher = less antimicrobial activity (less host growth inhibition)
Conditions: time post-induction: 4.5 h; library: site-saturation at positions 5, 18, 19, 20
Please respond with reported shrunken log2 fold change for every item in the list.

A selection of reference data follows.
>>> print(df.to_string())
       biopolymer_sequence             property_label  measured_value
0  RRIRQRPPRLPRPRPRPTKFPRP  shrunken log2 fold change          -0.203
1  RRIRFRPPRLPRPRPRPDIGPRP  shrunken log2 fold change         -0.0309

Give one value of shrunken log2 fold change per listed sequence.
1. RRIRTRPPRLPRPRPRPAWEPRP
2. RRIRCRPPRLPRPRPRPTCQPRP

1: 0.174; 2: 0.00203

---

Test system: Escherichia coli TOP10
Test: shrunken log2 fold change of peptide-encoding DNA abundance (4.5 h post-induction vs induction); higher = less antimicrobial activity (less host growth inhibition)
Settings: time post-induction: 4.5 h; library: site-saturation at positions 5, 18, 19, 20
Exercise: for every item that follows, state its recorded shrunken log2 fold change.
Answers are plain numbers.

       biopolymer_sequence             property_label  measured_value
0  RRIRQRPPRLPRPRPRPPHCPRP  shrunken log2 fold change          0.0459
1  RRIRERPPRLPRPRPRPCSWPRP  shrunken log2 fold change         -0.0335

Please find the next sequence below.
Which shrunken log2 fold change is reported for this sequence? RRIRFRPPRLPRPRPRPLRPPRP
0.932

---

System: Escherichia coli TOP10;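 also: peptides expressed intracellularly from a pBAD plasmid library in pooled LB shake-flask culture, induced with 0.3% L-arabinose, DNA abundance read by NGS, three biological replicates, DESeq2 with apeglm shrinkage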
Experiment: shrunken log2 fold change of peptide-encoding DNA abundance (4.5 h post-induction vs induction); higher = less antimicrobial activity (less host growth inhibition)
Settings: time post-induction: 4.5 h; library: site-saturation at positions 5, 18, 19, 20
Provide the recorded shrunken log2 fold change for the entries that follow.
One number for each entry.

Completed entries (count: 3):
>>> print(df.to_string())
       biopolymer_sequence  measured_value
0  RRIRYRPPRLPRPRPRPFIMPRP          -0.313
1  RRIRFRPPRLPRPRPRPHTYPRP          -0.554
2  RRIRRRPPRLPRPRPRPISTPRP         -0.0842

For every listed record, write down its shrunken log2 fold change.
1. RRIRDRPPRLPRPRPRPDFWPRP
2. RRIRDRPPRLPRPRPRPRDAPRP
3. RRIRHRPPRLPRPRPRPQIVPRP
4. RRIRRRPPRLPRPRPRPWDTPRP

1. 0.596
2. 0.59
3. -0.238
4. -0.139

Would you mind listing shrunken log2 fold change for each of the following sequences?
1. RRIRFRPPRLPRPRPRPDDVPRP
2. RRIRKRPPRLPRPRPRPQSKPRP

-0.0133
0.116

Provide shrunken log2 fold change values for the following items, in order.
1. RRIRERPPRLPRPRPRPQVCPRP
2. RRIRNRPPRLPRPRPRPSVDPRP
3. RRIRIRPPRLPRPRPRPKWDPRP
4. RRIRYRPPRLPRPRPRPPENPRP
5. RRIRRRPPRLPRPRPRPAATPRP
6. RRIRSRPPRLPRPRPRPGISPRP
7. RRIRDRPPRLPRPRPRPSDNPRP

1. -0.245
2. -0.0699
3. -0.13
4. -0.145
5. 0.335
6. -0.486
7. -0.0807
